Entries annotated with measured pIC50
- target: Dimer of Gag-Pol polyprotein [489-587] (Human immunodeficiency virus 1, UniProt P12497)
- Construct: 489-587
- protocol summary: Protease Inhibition Assay
- condition parameters: pH 4.7; 37 °C
pIC50: −log10 of the molar value.

{"smiles": "O=c1oc2ccccc2c(O)c1CCCCOc1ccccc1", "pIC50": "< 4.00"}
{"smiles": "COc1ccc(CCCCc2c(O)c3ccccc3oc2=O)cc1", "pIC50": "< 4.00"}
{"smiles": "O=c1[nH]c2ccccc2c(O)c1CCCOc1ccccc1", "pIC50": "< 3.70"}
{"smiles": "COc1ccccc1CCCCc1c(O)c2ccc(OCc3ccccc3)cc2oc1=O", "pIC50": "< 4.00"}
